Target: Sialic acid-binding Ig-like lectin 9 (Homo sapiens) (UniProt Q9Y336)
Sequence (Q9Y336 whole entry): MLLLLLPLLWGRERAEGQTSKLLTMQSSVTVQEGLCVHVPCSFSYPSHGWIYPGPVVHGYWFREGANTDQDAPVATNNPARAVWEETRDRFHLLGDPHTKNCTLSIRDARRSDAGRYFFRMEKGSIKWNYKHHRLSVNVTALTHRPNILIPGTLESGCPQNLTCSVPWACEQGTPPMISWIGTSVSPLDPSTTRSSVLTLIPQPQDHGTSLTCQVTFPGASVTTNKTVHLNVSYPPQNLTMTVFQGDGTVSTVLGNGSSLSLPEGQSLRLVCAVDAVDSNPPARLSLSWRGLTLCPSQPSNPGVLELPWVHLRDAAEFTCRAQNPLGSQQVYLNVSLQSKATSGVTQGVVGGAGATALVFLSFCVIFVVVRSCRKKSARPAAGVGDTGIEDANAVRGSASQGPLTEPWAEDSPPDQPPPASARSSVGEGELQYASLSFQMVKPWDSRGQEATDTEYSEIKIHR
Assay: Hs-Siglec9 ALPHAscreen SOP 20170721
Design: scale not given: direction of the effect not stated beside the values
Conditions: 10 µM
Property name: Percent Effect (%)
# value in %; strip the unit string

Observe how each entry below is paired with its result.
Molecule: Clc1ccccc1C1(c2ccnc(-c3ccncc3)n2)CCNCC1
System name: Sialic acid-binding Ig-like lectin 9 (Homo sapiens) (UniProt Q9Y336)
Result number: 10.4

Molecule: COCCc1noc(CN2CCCC2Cn2cc(C)cn2)n1 (centres undefined)
System name: Sialic acid-binding Ig-like lectin 9 (Homo sapiens) (UniProt Q9Y336)
Result number: 1.3

Molecule: Cc1csc(Nc2nccnc2C2CCCN2C(=O)C(C)C)n1 (centres undefined)
System name: Sialic acid-binding Ig-like lectin 9 (Homo sapiens) (UniProt Q9Y336)
Result number: -6.58

Molecule: CNCC(=O)N1CC(c2cc(Nc3ncccn3)nc(C)n2)C1
System name: Sialic acid-binding Ig-like lectin 9 (Homo sapiens) (UniProt Q9Y336)
Result number: -7.15

Molecule: Cc1nc(CNC(=O)NCCc2ccc(N(C)C)cc2)cs1
System name: Sialic acid-binding Ig-like lectin 9 (Homo sapiens) (UniProt Q9Y336)
Result number: 13.5

Molecule: CC(CCc1ccco1)NC(=O)Nc1cc(C(F)(F)F)c[nH]c1=O (centres undefined)
System name: Sialic acid-binding Ig-like lectin 9 (Homo sapiens) (UniProt Q9Y336)
Result number: 3.56

Sample Cc1cc(C)n(CC2CCCN2CCCS(N)(=O)=O)n1 (centres undefined) — what was its Percent Effect?
-5.77

Sample Cc1ncc2c(n1)CN(Cc1nnc(-c3occc3C)o1)CC2 — what was its Percent Effect?
14.5

Sample CNS(=O)(=O)c1ccc(C(=O)N2CCCC(n3cccn3)C2)cc1 (centres undefined) — what was its Percent Effect?
8.86

Sample CCN1CC(C(=O)NCc2ccnc(-n3ccnc3C)c2)CC1=O (centres undefined) — what was its Percent Effect?
-7.63

Sample Cc1cc(C)n(-c2ccc(CNCc3ccc(OC(C)C)cc3)cn2)n1 — what was its Percent Effect?
-0.618

Sample CN(C)[C@@H]1CN(Cc2ccoc2)C[C@@H]2CCCO[C@@H]21 — what was its Percent Effect?
0.192

Sample CC(=O)c1cccc(OCCCC(=O)N(C)Cc2cccc(O)c2)c1 — what was its Percent Effect?
4.56

###

Listed here are compounds together with their documented Percent Effect.
Target: Tyrosyl-tRNA synthetase, putative (Trypanosoma cruzi (strain CL Brener))
Sequence (whole entry): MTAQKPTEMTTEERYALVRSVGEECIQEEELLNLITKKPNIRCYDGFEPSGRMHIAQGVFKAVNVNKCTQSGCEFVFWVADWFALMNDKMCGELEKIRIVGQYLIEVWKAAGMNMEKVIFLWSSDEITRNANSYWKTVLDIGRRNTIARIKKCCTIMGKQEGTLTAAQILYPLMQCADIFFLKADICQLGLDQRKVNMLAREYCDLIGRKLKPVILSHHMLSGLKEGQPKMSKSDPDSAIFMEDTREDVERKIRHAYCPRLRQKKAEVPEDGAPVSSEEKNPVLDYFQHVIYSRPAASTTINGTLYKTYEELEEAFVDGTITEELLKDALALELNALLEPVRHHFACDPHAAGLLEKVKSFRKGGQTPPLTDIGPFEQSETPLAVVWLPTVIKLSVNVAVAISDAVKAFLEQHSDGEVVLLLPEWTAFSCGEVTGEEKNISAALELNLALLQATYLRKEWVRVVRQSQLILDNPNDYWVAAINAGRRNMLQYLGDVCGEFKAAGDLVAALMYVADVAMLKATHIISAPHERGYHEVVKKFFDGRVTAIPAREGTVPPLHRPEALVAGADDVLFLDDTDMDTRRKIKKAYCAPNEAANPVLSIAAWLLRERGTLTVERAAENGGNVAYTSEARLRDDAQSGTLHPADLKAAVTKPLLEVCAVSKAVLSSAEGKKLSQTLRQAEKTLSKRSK
Assay: Trypanosoma cruzi tyrosyl tRNA synthetase (TcYRS) SOP
Assay type: functional
Set-up: scale not given: direction of the effect not stated beside the values
Details: 30 µM
# value in %; strip the unit string

Compound: Cc1cc(C[C@@H]2COC[C@@H]2NC(=O)CN2CCCN(C)CC2)on1
Percent Effect, %: -55
--
Compound: COc1ccccc1OC1CCN(Cc2cnc(N(C)C)nc2)CC1
Percent Effect, %: 9.76
--
Compound: CS(=O)(=O)NCc1cc2n(n1)CCCN(Cc1cccc(C#N)c1)C2
Percent Effect, %: 19.5

Sample CCC(CC)C(=O)N1CCC2(C1)CN(c1ccccc1)C(=O)CN2C (stereo unspecified) — what was its Percent Effect?
0

Sample Cc1cc(CN2CCN(c3nn4cc(C)nc4s3)CC2)on1 — what was its Percent Effect?
15.2

Sample COc1cc(C(=O)N2CCCC(CNS(C)(=O)=O)C2)cc(OC)c1C (stereo unspecified) — what was its Percent Effect?
16.1

###

Listed here are compounds together with their documented Percent Effect.
Test system: Trypanosoma cruzi
Experiment: Trypanosoma cruzi phosphomannomutase and mannose-1-phosphate guanylyltransferase assay
Type: functional
Set-up: scale not given: direction of the effect not stated beside the values
Settings: 10 µM
# value in %; strip the unit string

Observe how each entry below is paired with its result.
Compound: COc1ccc(CN2CCN(C(C)=O)CC3(CC(=O)N(C)C3)C2)cc1 (stereo unspecified)
Property name: Percent Effect
Units text: %
Result number: -0.375
--
Compound: Cc1nc(-c2nnc[nH]2)sc1C(=O)N(Cc1cccnc1)C1CC1
Property name: Percent Effect
Units text: %
Result number: 6.67
--
Compound: CO[C@H]1CCN(Cc2cccc(C)n2)[C@@H]2CN(Cc3cccnc3)C[C@H]12
Property name: Percent Effect
Units text: %
Result number: 12.3
--
Compound: Cc1noc([C@@H]2CCCN2C(=O)C2CCN(C(=O)C3CCC3)CC2)n1
Property name: Percent Effect
Units text: %
Result number: -6.27
--
Compound: O=C(Nc1cc(C(F)(F)F)c[nH]c1=O)c1ccco1
Property name: Percent Effect
Units text: %
Result number: 0.28
--
Compound: COc1cc(CNCCc2cnn(C)c2)cc2c1OCCO2
Property name: Percent Effect
Units text: %
Result number: 1.32
--
Compound: CCN1Cc2c(C(=O)NCC3CC3)ncn2-c2ccccc2S1(=O)=O
Property name: Percent Effect
Units text: %
Result number: 3.37
--
Compound: O=C(NC1(c2nnn(CCO)n2)CCCC1)c1ccccc1
Property name: Percent Effect
Units text: %
Result number: 3.41
--
Compound: Cc1ccc(C(=O)NC2CCN(C(=O)Nc3ccccn3)CC2)o1
Property name: Percent Effect
Units text: %
Result number: -7.15
--
Compound: CC(=O)N1CCC(C(=O)NCCN2CCCCC2)CC1
Property name: Percent Effect
Units text: %
Result number: 0.875

Please examine the following record next.
Sample COCCOc1ncccc1CNCc1c(C)nn(C)c1N(C)C — what was its Percent Effect?
1.98

###

Listed here are compounds together with their documented Percent Effect.
Target: Arginase-2, mitochondrial (Homo sapiens)
Experiment: in vitro enzyme assay to detect the production of urea directly proportional to the activity of Arginase II; also: in the data most compounds retested in dose-response had high values
Format: functional
Set-up: scale not given: direction of the effect not stated beside the values
Conditions: 33.3 µM
# value in %; strip the unit string

Observe how each entry below is paired with its result.
Compound: CNS(=O)(=O)CCCN1CCCC1c1noc(C2CC2)n1 (centres undefined)
Units text: %
Result number: 4.56

Compound: CN(Cc1cc2c(cc1OC(F)F)OCO2)Cc1nccn1C
Units text: %
Result number: -0.744

Compound: COC(=O)C1CCN(c2cncc(-n3nc(C)cc3C)n2)CC1
Units text: %
Result number: 4.17

Sample O=C(C1CCOCC1)N1C[C@@H]2C[C@@H](c3nc(C4CC4)cs3)O[C@@H]2C1 — what was its Percent Effect?
-11.6

Sample Cc1nc(C2(O)CCCNCC2)sc1CCOc1ccc(Cl)cc1 (centres undefined) — what was its Percent Effect?
-2.09

Sample Cc1nc(C)n(CC2CN(CCOc3ccccc3F)CCO2)n1 (centres undefined) — what was its Percent Effect?
-2.66

###

Biological target: Sialic acid-binding Ig-like lectin 9 (Homo sapiens)
Assay: Hs-Siglec9 ALPHAscreen SOP 20170721
Parameters: scale not given: direction of the effect not stated beside the values
Conditions: 10 µM
Property name: Percent Effect (%)
# value in %; strip the unit string

Compound: Cc1ccn(CCC(=O)N2CCOC(c3nc(-c4cccs4)no3)C2)n1 (stereo unspecified)
Percent Effect [%]: 1.5

Please examine the following record next.
Sample O=C(c1n[nH]c2c1CCN(Cc1nccs1)C2)N1CCCC1 — what was its Percent Effect?
22.5

###

Target: Arginase-2, mitochondrial (Homo sapiens) (UniProt P78540)
Sequence (P78540 whole entry): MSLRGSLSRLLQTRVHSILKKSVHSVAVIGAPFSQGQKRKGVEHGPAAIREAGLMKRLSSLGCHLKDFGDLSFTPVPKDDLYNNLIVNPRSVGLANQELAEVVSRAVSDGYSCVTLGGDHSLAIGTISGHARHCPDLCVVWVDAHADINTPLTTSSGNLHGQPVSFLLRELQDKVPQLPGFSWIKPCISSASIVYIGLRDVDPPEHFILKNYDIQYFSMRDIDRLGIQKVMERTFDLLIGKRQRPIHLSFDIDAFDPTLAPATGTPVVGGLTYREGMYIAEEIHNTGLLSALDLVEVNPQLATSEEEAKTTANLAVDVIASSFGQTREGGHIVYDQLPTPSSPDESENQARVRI
Assay: in vitro enzyme assay to detect the production of urea directly proportional to the activity of Arginase II; also: in the data most compounds retested in dose-response had high values
Type: functional
Set-up: scale not given: direction of the effect not stated beside the values
Settings: 33.3 µM
Property name: Percent Effect (%)
# value in %; strip the unit string

Molecule: CCc1nc(CN2CCN(C(=O)CCc3ccccc3)CC2)cs1
System name: Arginase-2, mitochondrial (Homo sapiens) (UniProt P78540)
Percent Effect / %: 2.8
--
Molecule: Cc1noc(C)c1-c1cnc(CC2CCN(C(=O)c3cc[nH]n3)C2)cn1 (configuration not stated)
System name: Arginase-2, mitochondrial (Homo sapiens) (UniProt P78540)
Percent Effect / %: -2.09
--
Molecule: O=C(NCCNc1ncccn1)N(Cc1ccc(F)cc1F)C1CC1
System name: Arginase-2, mitochondrial (Homo sapiens) (UniProt P78540)
Percent Effect / %: 1.52

Hi! What's the reported Percent Effect for O=C(NCCNc1ccccn1)N1CCSCC1 on Arginase-2, mitochondrial (Homo sapiens) (UniProt P78540)?
0.802
